Reported pIC50 values are given for each entry in this list.
Biological target: T1, human IL-2Rα subunit (human, UniProt P01589 22-213, limits assumed)
T1 construct: also called CD25
T1 sequence (looked up): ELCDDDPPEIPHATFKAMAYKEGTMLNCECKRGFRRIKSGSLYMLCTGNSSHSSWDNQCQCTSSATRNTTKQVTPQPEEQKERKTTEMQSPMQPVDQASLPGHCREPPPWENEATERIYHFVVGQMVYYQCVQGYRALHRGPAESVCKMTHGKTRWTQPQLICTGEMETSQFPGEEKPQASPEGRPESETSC
pIC50: −log10 of the molar value.

Below, 3 binders whose answers are already recorded.
KRFCLRSEPTACWTV [SEQ ID NO 64] = > 4.00
TKLCLKSEPQACWSM [SEQ ID NO 53] = > 4.00
SRCSLVWAENWVCIF [SEQ ID NO 160] = > 4.00

Turning now to a further record.
Lab book: pIC50 of GRCHLVWSDRWECIF [SEQ ID NO 166] noted as > 4.00
